System: K562
procedure-text: Induction of DNA damage in human K562 cells assessed as increase in gammaH2AX at 1 to 5 uM for 2 hrs by Western blotting analysis
Format: functional, cell-based
settings: dose 1-5 µM
Activity calls are given as the source filed them. The rule behind the calls is not given here.
Output constraint: value belongs to 1.0 = active, 0.0 = inactive

>  <compound>
COc1cccc2c1C(=O)c1c(O)c3c(c(O)c1C2=O)C[C@@](O)(C(=O)CO)C[C@@H]3O[C@H]1C[C@H](O)[C@H](O)[C@H](C)O1 [HYDROXYRUBICIN]

>  <system-name>
K562

>  <group>
1.0

$$$$
>  <compound>
CC(=O)[C@]1(O)Cc2c(O)c3c(c(O)c2[C@@H](O[C@H]2C[C@H](N(C)C)[C@H](O[C@H]4C[C@H](O)[C@H](O[C@H]5CCC(=O)[C@H](C)O5)[C@H](C)O4)[C@H](C)O2)C1)C(=O)c1ccccc1C3=O

>  <system-name>
K562

>  <group>
0.0

$$$$
>  <compound>
COc1cccc2c1C(=O)c1c(O)c3c(c(O)c1C2=O)C[C@@](O)(C(=O)CO)C[C@@H]3O[C@H]1C[C@H](N2CCCC2)[C@H](O)[C@H](C)O1

>  <system-name>
K562

>  <group>
0.0

$$$$

Tell me the assay call for COc1cccc2c1C(=O)c1c(O)c3c(c(O)c1C2=O)C[C@@](O)(C(=O)CO)C[C@@H]3O[C@H]1C[C@H](N2CCC2)[C@H](O)[C@H](C)O1 please. 0.0

Tell me the assay call for COc1cccc2c1C(=O)c1c(O)c3c(c(O)c1C2=O)C[C@@](O)(C(=O)CO)C[C@@H]3O[C@H]1C[C@H](O)[C@H](N)[C@H](C)O1 please. 1.0

* * *

Test system: K562
procedure-text: Induction of DNA damage in human K562 cells assessed as increase in gammaH2AX at 1 to 5 uM for 2 hrs by Western blotting analysis
Type: functional, cell-based
settings: dose 1-5 µM
Activity calls are given as the source filed them. The calls are words filed in the database; no cut-off is given here.

>  <compound>
COc1cccc2c1C(=O)c1c(O)c3c(c(O)c1C2=O)C[C@@](O)(CCO)C[C@@H]3O[C@H]1C[C@H](N(C)C)[C@H](O)[C@H](C)O1

>  <Activity>
inactive

$$$$
>  <compound>
COc1cccc2c1C(=O)c1c(O)c3c(c(O)c1C2=O)C[C@@](O)(C(=O)CO)C[C@@H]3O[C@H]1C[C@H](N(C)C)[C@H](O[C@H]2C[C@H](O)[C@H](O[C@H]3CCC(=O)[C@H](C)O3)[C@H](C)O2)[C@H](C)O1 (single isomer, unassigned)

>  <Activity>
inactive

$$$$

* * *

Tested on: MEL-JUSO
procedure-text: Cytotoxicity against human MEL-JUSO cells incubated for 2 hrs by cell titre blue viability assay
Type: functional, cell-based
measurement-type: pIC50
Recall that pIC50 is obtained by taking minus log10 of the concentration measured in molar.

Guide cases for pIC50, answers given:
>  <compound>
CC[C@@]1(O)C[C@H](O[C@H]2C[C@H](N)[C@H](O)[C@H](C)O2)c2c(O)c3c(c(O)c2[C@H]1C(=O)OC)C(=O)c1cccc(O)c1C3=O

>  <pIC50>
5.37

$$$$
>  <compound>
COc1cccc2c1C(=O)c1c(O)c3c(c(O)c1C2=O)C[C@@](O)(C(=O)CO)C[C@@H]3O[C@H]1C[C@H](N2CCC2)[C@H](O)[C@H](C)O1

>  <pIC50>
6.53

$$$$
>  <compound>
COc1cccc2c1C(=O)c1c(O)c3c(c(O)c1C2=O)C[C@@](O)(C(=O)CO)C[C@@H]3O[C@H]1C[C@H](O)[C@H](O)[C@H](C)O1 [HYDROXYRUBICIN]

>  <pIC50>
5.72

$$$$
>  <compound>
COc1cccc2c1C(=O)c1c(O)c3c(c(O)c1C2=O)C[C@@](O)(C(=O)CO)C[C@@H]3O[C@H]1C[C@H](N=[N+]=[N-])[C@H](O)[C@H](C)O1

>  <pIC50>
5.91

$$$$
>  <compound>
COc1cccc2c1C(=O)c1c(O)c3c(c(O)c1C2=O)C[C@@](O)(C(=O)CO)C[C@@H]3O[C@H]1C[C@H](O)[C@H](N(C)C)[C@H](C)O1

>  <pIC50>
6.36

$$$$

I would be grateful if you could share the reported pIC50 for CC(=O)[C@]1(O)Cc2c(O)c3c(c(O)c2[C@@H](O[C@H]2C[C@H](N(C)C)[C@H](O[C@H]4C[C@H](O)[C@H](O[C@H]5CCC(=O)[C@H](C)O5)[C@H](C)O4)[C@H](C)O2)C1)C(=O)c1ccccc1C3=O . 8.10

I would be grateful if you could share the reported pIC50 for CC(=O)[C@]1(O)Cc2c(O)c3c(c(O)c2[C@@H](O[C@H]2C[C@H](N)[C@H](O[C@H]4C[C@H](O)[C@H](O[C@H]5CCC(=O)[C@H](C)O5)[C@H](C)O4)[C@H](C)O2)C1)C(=O)c1ccccc1C3=O . 6.17
